Entries annotated with measured TGI
# Tested on: IGROV1 ovarian
# protocol-notes: NCI tumour cell line growth inhibition, 48 h
measured-property: TGI

[[record]]
compound = "CO/N=C(\\c1ccccc1)c1cnn(-c2ccccc2)c1N"
measured_property = "TGI"
observed_result = "> 25 µM"

[[record]]
compound = "COc1ccc(C2C3=C(NC(=O)C2C#N)c2ccc4ccccc4c2OCC3)cc1 (stereo not drawn)"
measured_property = "TGI"
observed_result = "> 100 µM"

[[record]]
compound = "CCc1nc2c(O)ccc(O)c2nc1C"
measured_property = "TGI"
observed_result = "33.1 µM"

[[record]]
compound = "COc1ccc2c(O)c3[n+](cc2c1OC)CCc1cc2c(cc1-3)OCO2"
measured_property = "TGI"
observed_result = "> 100 µM"

[[record]]
compound = "CO/C(=N\\N=C(/C)C(F)(F)F)c1ccncc1"
measured_property = "TGI"
observed_result = "> 100 µM"

[[record]]
compound = "CC(C)C1CN1CC(O)Cn1ccnc1[N+](=O)[O-] (stereo not drawn)"
measured_property = "TGI"
observed_result = "> 100 µM"

[[record]]
compound = "COC(=O)[C@]1(C)CCCn2c(=O)n(-c3ccccc3)c(=O)n21"
measured_property = "TGI"
observed_result = "> 100 µM"

[[record]]
compound = "CN1CC(c2ccccc2)=Cc2c1ccc(N)c2N=N"
measured_property = "TGI"
observed_result = "> 100 µM"

